# Test system: HOP-18
# assay explanation: NCI tumour cell line growth inhibition, 48 h
The source made the active and inactive calls. No stated cut-off is given here; in the data, active = GI50 up to about 1.1 µM and inactive = higher.
Assign a class; possible classes are yes (1) for active, no (0) for inactive

Identify the outcome logged in this assay for the molecule shown: COC(=O)/C=C(\C)CCC1SC1(C)C (stereo not drawn)
no (0)

Identify the outcome logged in this assay for the molecule shown: CC(C)=CC(=O)OC1C2C(C)=CC(O)C(O)C2(C)C2C3(O)OCC24C(CC(=O)OC14)C(C)C3O (stereo not drawn)
yes (1)

Identify the outcome logged in this assay for the molecule shown: [N-]=[N+]=NC(c1cn(C2CC(O)C(CO)O2)c(=O)[nH]c1=O)C(Cl)Br (stereo not drawn)
no (0)

Identify the outcome logged in this assay for the molecule shown: O=c1[nH]nc2ccccc2c1Cl
no (0)

Identify the outcome logged in this assay for the molecule shown: COC1=CC(=C(C#N)/C(=N\c2ccccc2)SC)C=C(OC)C1=O
no (0)

Identify the outcome logged in this assay for the molecule shown: S=c1[nH]c2ccc(Br)cc2c(=S)n1-c1ccccc1
no (0)

Identify the outcome logged in this assay for the molecule shown: COCC12CC(CC1=O)C1C2ON2c3ccccc3C(=O)C12c1ccccc1 (stereo not drawn)
no (0)

###

# Tested on: SN12C
# assay explanation: NCI tumour cell line growth inhibition, 48 h
Active and inactive are the calls of the source. Rule as the data show it: active = GI50 up to about 1.1 µM and inactive = higher.
GI50 reference

Consider the reported GI50 for these compounds:
CCOC(=O)NC(=O)c1cn(CCN2CCN(C(=O)CCCCCCCCCCNc3ncnc4c3ncn4C3OC(CO)C(O)C3O)CC2)c(=O)[nH]c1=O (stereo not drawn) | > 100 µM (inactive)
C=C1CC/C=C(/C(=O)O)CC[C@H]2[C@@H]1CC2(C)C | > 100 µM (inactive)
Nc1ccc2c(c1)Oc1c(F)c(F)cc3c(=O)c(C(=O)O)cn-2c13 | 39.1 µM (inactive)
COc1ccc(C2CCc3c(cnc4nc(N)nc(N)c34)C2)cc1 (stereo not drawn) | 7.16 µM (inactive)
COc1ccc(-c2cc(O)c3nc4ccccc4n3c2)cc1 | > 100 µM (inactive)
COc1ccc(/C(Cl)=C(\C=O)c2ccc(OC)cc2)cc1 | > 100 µM (inactive)

For the compound O=C(CCc1n[nH]c(=S)o1)Nc1ccccc1C(F)(F)F , what GI50 is on record?
> 100 µM (inactive)

For the compound CCN(CC)CCNc1n[n+]([O-])c2ccccc2[n+]1[O-] , what GI50 is on record?
3.91 µM (inactive)

For the compound C[n+]1cccc2ccc3cccnc3c21 , what GI50 is on record?
35.1 µM (inactive)

For the compound CCCN(CCCc1ccccc1)CCc1ccc2[nH]c(=S)[nH]c2c1 , what GI50 is on record?
> 100 µM (inactive)

For the compound O=C(Nc1ccccc1Br)c1cccc([N+](=O)[O-])c1O , what GI50 is on record?
3.94 µM (inactive)

For the compound Cc1cccc2sc(NC(=O)NS(=O)(=O)n3cnc4ccccc43)nc12 , what GI50 is on record?
25.9 µM (inactive)

For the compound CC(C)=CCNc1ncnc2c1ncn2CCC(=O)OC(C)(C)C , what GI50 is on record?
> 100 µM (inactive)

For the compound CC[C@H]1C[C@@H](O)[C@@H]2[C@H](O)[C@H](O)CN2C1 , what GI50 is on record?
> 100 µM (inactive)

For the compound Cc1ccc(C2=C(C#N)C(=O)N3CCN=C3S2)cc1 , what GI50 is on record?
> 100 µM (inactive)

For the compound O=C1c2ccccc2-c2cc3ccccc3c(=O)n21 , what GI50 is on record?
> 100 µM (inactive)

For the compound [O-][n+]1cc(SCc2ccccc2)ncc1SCc1ccccc1 , what GI50 is on record?
> 10 µM (inactive)

For the compound COc1ccc(N[S+]([O-])c2ccc(-c3ccccc3)cc2)cc1 (stereo not drawn) , what GI50 is on record?
> 100 µM (inactive)
